Tested on: RAW264.7
assay.protocol: Suppression of LPS-induced NO production in mouse RAW264.7 cells treated for 2 hrs and followed by challenged with […] for 24 hrs by griess reagent
Format: functional, cell-based
property.name: inhibition

smiles.str	target.or.test.system	inhibition
Cc1ccc(/C=C/C(=O)c2ccc(Cl)cc2)cc1	RAW264.7	Dose-dependent effect
COc1cccc(C(=O)/C=C/c2ccc(Cl)cc2)c1	RAW264.7	Dose-dependent effect
COc1ccc(C(=O)/C=C/c2cc(OC)c(Br)c(OC)c2)cc1OC	RAW264.7	Dose-dependent effect
COc1cccc(C(=O)/C=C/c2cc(OC)c(OC)cc2Br)c1	RAW264.7	Dose-dependent effect
COc1ccc(/C=C/C(=O)c2ccc(Br)cc2)cc1OC	RAW264.7	Dose-dependent effect

What value of inhibition has been reported for the following compound? COc1cc(Br)c(/C=C/C(=O)c2ccc(Br)cc2)cc1OC
Dose-dependent effect
